system: gp120 coremin; assay: SPR enhancement of gp120 coremin binding to 17b antibody; parameters: species or system HIV-1; settings: 100 nM gp120, 0–100 µM compound, 17b captured on CM5 chip
REPORTED ENDPOINT: enhancement of gp120 coremin binding to 17b

MOLECULE: CC1(C)O[C@@H](CN)[C@H](CNC(=O)C(=O)Nc2ccc(Cl)c(F)c2)O1 (relative stereo) [AS-I-261]
ENDPOINT RESULT: equally enhanced
--
MOLECULE: O=C(NC[C@@]12CCC[C@@H]1CNC2)C(=O)Nc1ccc(Cl)c(F)c1 (relative stereo) [MAE-II-167]
ENDPOINT RESULT: equally enhanced
--
MOLECULE: O=C(NCC1CCN(C2CC2)C1)C(=O)Nc1ccc(Cl)c(F)c1 (centres unmarked) [MAE-II-188]
ENDPOINT RESULT: equally enhanced
